# system under test: UniProt:P18031
# Sequence (P18031 1-435): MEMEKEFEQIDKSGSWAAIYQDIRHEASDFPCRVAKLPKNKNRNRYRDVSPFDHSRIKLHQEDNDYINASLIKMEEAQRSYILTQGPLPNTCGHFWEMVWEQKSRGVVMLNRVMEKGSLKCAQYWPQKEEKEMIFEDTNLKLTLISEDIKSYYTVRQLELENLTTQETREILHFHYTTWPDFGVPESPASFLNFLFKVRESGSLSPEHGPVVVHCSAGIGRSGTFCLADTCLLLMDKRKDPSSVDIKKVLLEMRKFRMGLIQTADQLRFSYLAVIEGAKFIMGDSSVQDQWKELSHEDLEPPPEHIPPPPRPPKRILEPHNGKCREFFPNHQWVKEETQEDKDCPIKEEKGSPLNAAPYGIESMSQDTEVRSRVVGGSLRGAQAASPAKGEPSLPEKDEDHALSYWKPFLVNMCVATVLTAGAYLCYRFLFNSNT
# experiment notes: PTP1B assay (pNPP substrate)
# Type: biochemical
# condition details: 31.25 µM
readout type: inhibition at 31.25 µM

{"columns": ["molecule", "test result"],
 "data": [
  ["CN1C(=O)C[C@@H](C(C)(C)/C=C2\\SC(=O)N(C(=O)CN3CCOCC3)C2=O)C1=O [10b]", "57.2%"],
  ["C[C@H]1[C@H](C)CC[C@]2(C(=O)O)CC[C@]3(C)C(=CC[C@@H]4[C@@]5(C)CC[C@H](O)C(C)(C)[C@@H]5CC[C@]43C)[C@H]12 [Ursolic acid, ursolic acid, reference compound]", "71.8%"],
  ["COc1ccc(N2C(=O)C[C@@H](C(C)(C)/C=C3\\SC(=O)N(C(=O)CN4CCOCC4)C3=O)C2=O)cc1 [10e]", "56.4%"],
  ["CC(C)(C=C1SC(=O)N(C(=O)CN2CCOCC2)C1=O)C1CC(=O)N(Cc2ccccc2)C1=O (stereo not drawn) [10d]", "71.8%"],
  ["CC(C)(/C=C1\\SC(=O)N(C(=O)CN2CCOCC2)C1=O)[C@@H]1CC(=O)N(c2ccccc2)C1=O [10c]", "53.5%"],
  ["CC(C)(/C=C1\\SC(=O)N(C(=O)CN2CCOCC2)C1=O)[C@@H]1CC(=O)NC1=O [10a]", "62.9%"]
]}
